Cited source for all entries: patent US12441718B2

- assayed-target: human recombinant AT2 receptor (Homo sapiens, UniProt P50052)
- Sequence (P50052 1-363): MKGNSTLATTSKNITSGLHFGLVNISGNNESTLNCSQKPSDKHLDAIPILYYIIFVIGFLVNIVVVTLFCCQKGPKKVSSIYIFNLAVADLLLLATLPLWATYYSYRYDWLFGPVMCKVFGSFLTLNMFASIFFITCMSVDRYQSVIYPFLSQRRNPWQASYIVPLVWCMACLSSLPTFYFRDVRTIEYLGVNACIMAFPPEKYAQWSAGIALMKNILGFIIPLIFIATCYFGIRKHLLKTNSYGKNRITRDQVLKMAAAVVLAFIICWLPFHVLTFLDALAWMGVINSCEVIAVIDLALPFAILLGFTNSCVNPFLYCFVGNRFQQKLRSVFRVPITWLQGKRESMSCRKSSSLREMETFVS
- assay-summary: Binding to AT2 receptor, radiometric scintillation assay (Eurofins ITEM26)
- experimental-setup: seven-point dose-response curve, ligand 125I CGP 42112A; * rows = mean of runs
Field: pKi. Provide a value for each of the molecules that follow.
Quick note: pKi values are minus log10 of concentrations in mol/L.

May I ask what pKi has been recorded for CC(C)Cc1ccc(S(=O)(=O)Nc2ncccn2)c(-c2ccc(Cn3ccnc3C(C)C)c(F)c2)c1 ? 9.51

// next record COc1ncnc(OC)c1NS(=O)(=O)c1ccc(CC(C)C)cc1-c1ccc(Cn2ccnc2C(C)(C)C)c(F)c1 7.12

// next record COc1ccc(NS(=O)(=O)c2ccc(CC(C)C)cc2-c2ccc(Cn3ccnc3C(C)(C)C)c(F)c2)nn1 9.49

// next record CC(C)Cc1ccc(S(=O)(=O)Nc2ncc(Cl)cn2)c(-c2ccc(Cn3ccnc3C(C)(C)C)c(F)c2)c1 8.82

// next record CC(C)Cc1cc(-c2ccc(Cn3ccnc3C(C)C)cc2)c(S(=O)(=O)Nc2ncccn2)s1 9.17

// next record CC(C)Cc1ccc(S(=O)(=O)Nc2ncc(C(F)(F)F)cn2)c(-c2ccc(Cn3ccnc3C(C)(C)C)cc2)c1 8.21

// next record CC(C)Cc1ccc(S(=O)(=O)Nc2ncc(F)cn2)c(-c2ccc(Cn3ccnc3C(C)(C)C)cc2)c1 8.62
